Let's look at some molecules and their measured pIC50.
# Test system: NCI-N87 cells
# Measurement Description: Inhibitory activity on cancer cell growth (CCK-8, 72 h), NCI-N87 cells
# Format: cell-based
# Condition Details: Homo sapiens, NCI-N87, 72 h, human gastric cancer cells NCI-N87, 72 h incubation, read-out: IC50
pIC50: −log10 of the molar value.

Chemical String | pIC50
CC[C@@]1(O)C(=O)OCc2c1cc1n(c2=O)Cc2cc3c(CN(C)C4CC4)c(O)ccc3nc2-1 | > 7.30
CC[C@@]1(O)C(=O)OCc2c1cc1n(c2=O)Cc2cc3c(CN4CCN(C(=O)OC)CC4)c(O)ccc3nc2-1 | > 7.30
CC[C@@]1(O)C(=O)OCc2c1cc1n(c2=O)Cc2cc3c(CN(C)C(C)C)c(O)ccc3nc2-1 | > 7.30
